target: Prohibitin-2 (Homo sapiens) (UniProt Q99623); assay: Induction of PHB2-mediated melanogenesis in human HBL cells assessed as pigmentation at 10 uM after 10 days relative to control; format: cell-based
Sequence (Q99623 whole entry): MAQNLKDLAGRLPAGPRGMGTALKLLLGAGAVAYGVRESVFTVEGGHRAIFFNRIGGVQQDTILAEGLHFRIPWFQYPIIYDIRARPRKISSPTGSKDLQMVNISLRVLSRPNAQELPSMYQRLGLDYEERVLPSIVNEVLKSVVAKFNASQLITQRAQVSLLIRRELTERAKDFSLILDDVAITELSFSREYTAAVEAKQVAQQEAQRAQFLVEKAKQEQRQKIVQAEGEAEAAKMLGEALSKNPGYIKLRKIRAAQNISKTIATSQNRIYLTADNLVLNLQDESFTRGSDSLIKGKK
Each record here notes measured fold change (FC).
Answer with the value's number alone.

Recorded fold change (FC), per entry:
CNc1nc(NC(C)c2cccc(F)c2)nc(Oc2c(F)c(F)c(F)c(F)c2F)n1 (stereo unspecified) | 0.84
Fc1cccc(CNc2nc(Oc3c(F)c(F)c(F)c(F)c3F)nc(N3CCOCC3)n2)c1 | 0.93

[Q] Given CC[C@H](CO)Nc1nc(Oc2c(F)c(F)c(F)c(F)c2F)nc(N2CCCc3ccccc3C2)n1 , state its recorded fold change (FC).
[A] 0.74

----------
biological target: UniProt Q99623; test: Induction of PHB2-mediated melanogenesis in human HBL cells assessed as pigmentation at 10 uM after 10 days relative to control; format: cell-based
Outcome label depends on fold change (FC) relative to 0.9: at/above gives YES, below gives NO.

C[C@@H](c1ccccc1)N(C)c1nc(NCCN(C)C)nc(Oc2c(F)c(F)c(F)c(F)c2F)n1 | NO
COCCNc1nc(NCc2cccc(F)c2)nc(Oc2c(F)c(F)c(F)c(F)c2F)n1 | NO
Fc1cccc(CNc2nc(NCc3cccnc3)nc(Oc3c(F)c(F)c(F)c(F)c3F)n2)c1 | YES
CC(Nc1nc(NCCN(C)C)nc(Oc2c(F)c(F)c(F)c(F)c2F)n1)c1cccc(F)c1 (centres undefined) | NO
C[C@@H](Nc1nc(NCCN(C)C)nc(Oc2c(F)c(F)c(F)c(F)c2F)n1)c1ccccc1 | NO

[Q] Reported fold change (FC) at or above 0.9? Fc1cccc(CNc2nc(Oc3c(F)c(F)c(F)c(F)c3F)nc(N3CCCC3)n2)c1
[A] YES

[Q] // same read-out, input: CCN(Cc1ccccc1)c1nc(NCCN(C)C)nc(Oc2c(F)c(F)c(F)c(F)c2F)n1
[A] YES

[Q] Moving on to CN(C)CCNc1nc(Oc2c(F)c(F)c(F)c(F)c2F)nc(N(C)Cc2ccccc2)n1
[A] YES

----------
molecular target: Prohibitin-2 (Homo sapiens) (UniProt Q99623); assay: Induction of PHB2-mediated melanogenesis in human HBL cells assessed as pigmentation at 1 uM after 10 days relative to control; type: cell-based
Listing: fold change (FC) of selected compounds

Use the examples below as a reference point.
CC[C@H](CO)Nc1nc(Oc2c(F)c(F)c(F)c(F)c2F)nc(N(C)Cc2cccc(F)c2)n1 | 0.77
CN(C)c1nc(NCc2cccc(F)c2)nc(Oc2c(F)c(F)c(F)c(F)c2F)n1 | 1.04
CN(C)CCNc1nc(Oc2c(F)c(F)c(F)c(F)c2F)nc(N(C)Cc2ccccc2)n1 | 0.98
CCC(Nc1nc(NCCN(C)C)nc(Oc2c(F)c(F)c(F)c(F)c2F)n1)c1cccc(F)c1 (stereo not given) | 0.86

[Q] For CNc1nc(NCc2cccc(F)c2)nc(Oc2c(F)c(F)c(F)c(F)c2F)n1 , what is its reported fold change (FC)?
[A] 0.89

----------
molecular target: Prohibitin-2 (Homo sapiens) (UniProt Q99623); assay: Induction of PHB2-mediated melanogenesis in human HBL cells assessed as pigmentation at 1 uM after 10 days relative to control; assay type: cell-based
measure: fold change (FC)
The response must contain the number and no unit.

Use the examples below as a reference point.
CN(C)CCNc1nc(Oc2c(F)c(F)c(F)c(F)c2F)nc(N2CCCc3ccccc3C2)n1 | 0.89
CNc1nc(NCc2ccccc2)nc(Oc2c(F)c(F)c(F)c(F)c2F)n1 | 0.9

Consider now this further compound.
[Q] State the recorded fold change (FC) for this entry: CC(=O)NCCNc1nc(NCc2cccc(F)c2)nc(Oc2c(F)c(F)c(F)c(F)c2F)n1
[A] 0.91
